Reported log10(Ki) values for the following molecules.
Biological target: recombinant human EP-2 receptor (Homo sapiens)
Construct: stably transfected with full length cDNA encoding human Prostaglandin E2
Sequence (P43116 whole entry): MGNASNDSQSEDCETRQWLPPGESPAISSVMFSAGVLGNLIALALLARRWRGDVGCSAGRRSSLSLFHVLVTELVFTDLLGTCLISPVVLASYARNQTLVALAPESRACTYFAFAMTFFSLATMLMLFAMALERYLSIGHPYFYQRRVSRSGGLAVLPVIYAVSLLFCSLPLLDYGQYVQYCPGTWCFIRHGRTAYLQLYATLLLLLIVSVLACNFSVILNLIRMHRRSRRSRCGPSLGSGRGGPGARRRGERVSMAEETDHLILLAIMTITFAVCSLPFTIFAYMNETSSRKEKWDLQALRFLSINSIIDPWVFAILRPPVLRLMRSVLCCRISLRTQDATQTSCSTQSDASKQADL
Experiment: In vitro antagonist potency against recombinant human prostaglandin E2 (EP-2) receptor in CHO cells (cAMP, Protocol 1)
Details: CHO cells expressing recombinant human EP-2 receptor, stimulated with 5 nM PGE2; cAMP readout; Ki by Cheng-Prusoff equation; read-out: EP2 Ki
Description: 1.0 Measurement of In Vitro Antagonist Potency (IC50) of Compounds Against Recombinant Human Prostaglandin E2 Receptor in CHO Cells […] A Chinese hamster ovary (CHO) cell line stably transfected with full length cDNA encoding human Prostaglandin E2 was established using standard molecular biology methods. […] IC50 estimates were determined as the concentration of test compound giving an effect half way between the bottom and top asymptotes of the sigmoidal dose response curve. […]
Note: values are log10 of Ki expressed in nM.

O=C(Oc1ccc(Cl)cc1)N1CCC(COc2ccc(-c3ccc(F)cc3)cc2)(C(=O)O)C1 (single isomer, unassigned) [Example 89]    2.40
COc1ccc(C(=O)N2CCC(COc3cnc(-c4ccc(Cl)cc4)nc3)(C(=O)O)C2)cc1 (single isomer, unassigned) [Example 49]    2.09
O=C(c1ccc(Cl)cc1)N1CCC(COc2ccc(-c3ccc(F)cc3)cc2)(C(=O)O)C1 (single isomer, unassigned) [Example 36]    0.06
COc1ccc(C(=O)N2CCC(COc3ccc(-c4ncc(Cl)cn4)cc3)(C(=O)O)C2)cc1 (single isomer, unassigned) [Example 43]    2.16
COc1ccccc1C(=O)N1CCC(COc2ccc(-c3ccc(C#N)cc3)cc2)(C(=O)O)C1 (single isomer, unassigned) [Example 66]    0.52

Value of measured log10(Ki) for the entry COc1ccccc1C(=O)N1CCC(COc2ccc(-c3ncc(F)cn3)cc2)(C(=O)O)C1 (single isomer, unassigned) [Example 63] : 2.24

Value of measured log10(Ki) for the entry O=C(C1CCC1)N1CCC(COc2ccc(-c3ccc(F)cc3)cc2)(C(=O)O)C1 (single isomer, unassigned) [Example 79] : 1.33

Value of measured log10(Ki) for the entry O=C(c1ccc(F)cc1)N1CCC(COc2ccc(-c3ccc(Cl)cn3)cc2)(C(=O)O)C1 (single isomer, unassigned) [Example 13] : 2.52

Value of measured log10(Ki) for the entry COc1ccccc1C(=O)N1CCC(COc2ccc(-c3ncc(F)cn3)cc2)(C(=O)O)C1 (single isomer, unassigned) [Example 64] : 2.79

Value of measured log10(Ki) for the entry COc1ccc(C(=O)N2CCC(COc3ccc(-c4ccc(F)cc4)cc3)(C(=O)O)C2)cc1 (single isomer, unassigned) [Example 41] : 1.83

Value of measured log10(Ki) for the entry N#Cc1ccc(-c2ccc(OCC3(C(=O)O)CCN(C(=O)c4ccc(F)cc4)C3)cc2)cc1 (single isomer, unassigned) : -0.46

Value of measured log10(Ki) for the entry COc1ccccc1C(=O)N1CCC(COc2ccc(-c3ccc(Cl)cc3)nc2)(C(=O)O)C1 (single isomer, unassigned) [Example 70] : 1.36

Value of measured log10(Ki) for the entry COc1ccc(C(=O)N2CCC(COc3ccc(-c4ccc(F)cc4)cc3)(C(=O)O)C2)cc1 (single isomer, unassigned) [Example 40] : 0.37

Value of measured log10(Ki) for the entry O=C(Nc1ccc(Cl)cc1)N1CCC(COc2ccc(-c3ccc(F)cc3)cc2)(C(=O)O)C1 (single isomer, unassigned) [Example 102] : 2.20

Value of measured log10(Ki) for the entry O=C(C1CCCC1)N1CCC(COc2ccc(-c3ccc(F)cc3)cc2)(C(=O)O)C1 (single isomer, unassigned) [Example 81] : 1.74

Value of measured log10(Ki) for the entry O=C(Oc1ccc(Cl)cc1)N1CCC(COc2ccc(-c3ccc(F)cc3)cc2)(C(=O)O)C1 (single isomer, unassigned) [Example 88] : 1.17
